Field: Population Apoptotic (%). Provide a value for each of the compounds that follow.
Test system: HEK-293T
RUN_DESCRIPTION: Multiplex assay against HEK293T
Assay type: toxicity, cell-based
RECORDED_CONDITIONS: human, 48 h, 10 µM, compound concentration 10 uM, replicate 1
One number for each entry, in %.

{"columns": ["COMPOUND", "VALUE_UNITS", "Population Apoptotic (%)"],
 "data": [
  ["CC(C)[C@H](CO)Nc1nc(Nc2cccc(Cl)c2)c2ncn(C(C)C)c2n1", "%", 85],
  ["CCCCCNC(=N)N/N=C/c1c[nH]c2ccc(OC)cc12.O=C(O)/C=C\\C(=O)O [TEGASEROD MALEATE]", "%", 58],
  ["CN1C(=O)[C@@H](NC(=O)c2cc3ccccc3[nH]2)N=C(c2ccccc2)c2ccccc21 [DEVAZEPIDE]", "%", 66],
  ["c1ccc(-c2oc3ncnc(NC[C@@H]4CCCO4)c3c2-c2ccccc2)cc1", "%", 70]
]}

Now take the following compound into account.
I'd like to know its Population Apoptotic (%). The compound in question is Oc1cccc(-c2nc(N3CCOCC3)c3oc4ncccc4c3n2)c1
55
